# Tested on: HAB1
# method summary: Yeast two hybrid of pBD-PYR1 site saturation mutants with pACT-HAB1 on 10 μM ABA, β-galactosidase staining
# Format: cell-based, Arabidopsis
# Parameters: key: x: Mutations in PYR1 that disrupt ABA-induced binding to PYR1 to HAB1
# conditions used: S. cerevisiae Y190, 10 μM ABA; dead = lack of visible staining in comparison to wild type control
test readout: Mutations in PYR1 that disrupt ABA-induced binding to PYR1 to HAB1

L117E: PYR1 mutant (protein, UniProt O49686 1-191, looked up, variant L117E) Abscisic acid receptor PYR1: MPSELTPEERSELKNSIAEFHTYQLDPGSCSSLHAQRIHAPPELVWSIVRRFDKPQTYKHFIKSCSVEQNFEMRVGCTRDVIVISGLPANTSTERLDILDDERRVTGFSIIGGEHRETNYKSVTTVHRFEKENRIWTVVLESYVVDMPEGNSEDDTRMFADTVVKLNLQKLATVAEAMARNSGDGSGSQVT | x
R116V: PYR1 mutant (protein, UniProt O49686 1-191, looked up, variant R116V) Abscisic acid receptor PYR1: MPSELTPEERSELKNSIAEFHTYQLDPGSCSSLHAQRIHAPPELVWSIVRRFDKPQTYKHFIKSCSVEQNFEMRVGCTRDVIVISGLPANTSTERLDILDDERRVTGFSIIGGEHVLTNYKSVTTVHRFEKENRIWTVVLESYVVDMPEGNSEDDTRMFADTVVKLNLQKLATVAEAMARNSGDGSGSQVT | x
L87Q: PYR1 mutant (protein, UniProt O49686 1-191, looked up, variant L87Q) Abscisic acid receptor PYR1: MPSELTPEERSELKNSIAEFHTYQLDPGSCSSLHAQRIHAPPELVWSIVRRFDKPQTYKHFIKSCSVEQNFEMRVGCTRDVIVISGQPANTSTERLDILDDERRVTGFSIIGGEHRLTNYKSVTTVHRFEKENRIWTVVLESYVVDMPEGNSEDDTRMFADTVVKLNLQKLATVAEAMARNSGDGSGSQVT | x
